Measurement target: T1, Prolyl oligopeptidase B from Galerina marginata (GmPOPB) (Galerina marginata, UniProt H2E7Q8 1-730)
T1 sequence (looked up): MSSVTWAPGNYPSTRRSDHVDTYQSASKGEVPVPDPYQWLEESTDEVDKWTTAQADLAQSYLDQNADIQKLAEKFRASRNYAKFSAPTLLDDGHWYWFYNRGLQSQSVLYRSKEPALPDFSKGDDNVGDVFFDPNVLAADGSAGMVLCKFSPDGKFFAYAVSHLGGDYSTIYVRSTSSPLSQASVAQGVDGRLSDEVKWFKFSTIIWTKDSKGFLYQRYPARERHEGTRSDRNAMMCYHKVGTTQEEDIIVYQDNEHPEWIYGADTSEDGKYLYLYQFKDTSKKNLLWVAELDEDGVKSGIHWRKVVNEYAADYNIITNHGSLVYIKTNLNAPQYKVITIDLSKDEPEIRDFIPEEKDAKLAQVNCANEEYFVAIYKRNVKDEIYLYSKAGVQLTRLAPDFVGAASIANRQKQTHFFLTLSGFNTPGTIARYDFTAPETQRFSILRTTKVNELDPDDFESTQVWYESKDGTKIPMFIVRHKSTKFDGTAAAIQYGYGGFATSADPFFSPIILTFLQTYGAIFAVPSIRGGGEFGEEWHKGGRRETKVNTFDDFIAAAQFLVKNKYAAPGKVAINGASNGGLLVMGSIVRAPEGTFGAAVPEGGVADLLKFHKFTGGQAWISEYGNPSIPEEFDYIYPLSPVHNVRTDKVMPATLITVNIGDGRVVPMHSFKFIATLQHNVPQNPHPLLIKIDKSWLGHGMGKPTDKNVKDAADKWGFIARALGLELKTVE
Test description: stopped-flow tryptophan fluorescence; analytical fitting; excitation 285 nm, emission above 320 nm; 20 °C; 50 mM Tris-HCl (pH 8.0), 50 mM NaCl, 10 mM DTT; constants calculated from rate constants; Kov is an apparent dissociation constant for a two-step binding process
Condition label: both partners purified
Test readout: pKd
// pKd: -log10(molar conc.)

// query Return reported pKd; argument: WTAEHVDQTLASGNDIC [peptide tail (17-amino acid C-terminal recognition sequence)]
// result 6.14
